Hey, just so you know, these numbers are from the supplement of paper PMC7125110.

B1: glmS ribozyme (parent)
chain: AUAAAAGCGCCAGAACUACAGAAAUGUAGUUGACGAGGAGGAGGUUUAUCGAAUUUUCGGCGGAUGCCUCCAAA

Variants of: B1
RUN_DESCRIPTION: self-cleavage kobs at 640 uM GlcN6P; higher = faster cleavage; RNA array
TEST_SETTINGS: with glucosamine-6-phosphate
Fewer inactive variants are shown than the library holds.
MEASURED_ATTRIBUTE: self-cleavage kobs at 640 uM GlcN6P

Query: self-cleavage kobs at 640 uM GlcN6P; subject: U57C U69G 3.38e-05 s⁻¹

Quick check: self-cleavage kobs at 640 uM GlcN6P of A36C G41U G51A G60U ? < 1e-05 s⁻¹

Recorded self-cleavage kobs at 640 uM GlcN6P for G51C U65G , please? < 1e-05 s⁻¹

Could you share which self-cleavage kobs at 640 uM GlcN6P value was measured for G29C U46C ? 5.09e-05 s⁻¹

Query: self-cleavage kobs at 640 uM GlcN6P; subject: G59C U65A < 1e-05 s⁻¹

Fill in the blank: the reported self-cleavage kobs at 640 uM GlcN6P of C8G G29C A42G G51C C58G G59A is ____. < 1e-05 s⁻¹

Could you tell me self-cleavage kobs at 640 uM GlcN6P for each of these variants? They are listed below.
1. G29A G32U U56A
2. A15C U30A
3. C11G U55G G59C
4. U56C U57C
5. G9A C10U C68A
6. G32A C70U
7. G7U U56A

1: 8.76e-05 s⁻¹; 2: 0.00307 s⁻¹; 3: 0.00067 s⁻¹; 4: 7.5e-05 s⁻¹; 5: < 1e-05 s⁻¹; 6: 0.000627 s⁻¹; 7: < 1e-05 s⁻¹
